meta.source: the NIST ThermoML archive (doi:10.1016/j.jct.2016.08.005)

# cond: 283.15 K; 65000 kPa; Liquid; Vibrating tube method
experimental.endpoint: mass density (kg/m3)

Cc1ccsc1 [3-methylthiophene]
1072.32
c1ccsc1 [thiophene]
1119.27
Cc1cccs1 [2-methylthiophene]
1072.21
Cc1ccc(C)s1 [2,5-dimethylthiophene]
1036.24

###

# cond: 288.15 K; 10000 kPa; Liquid; Vibrating tube method
experimental.endpoint: mass density (kg/m3)

Cc1ccsc1
1034.03
c1ccsc1
1078.46
Cc1cccs1
1033.22
Cc1ccc(C)s1
997.94

###

# cond: 313.15 K; 35000 kPa; Liquid; Vibrating tube method
experimental.endpoint: mass density (kg/m3)

Cc1ccsc1
1027.61
c1ccsc1
1070.21
Cc1cccs1
1026.65
Cc1ccc(C)s1
992.49

###

# cond: 303.15 K; 100 kPa; Liquid; Vibrating tube method
experimental.endpoint: mass density (kg/m3)

Cc1ccc(C)s1
975.1
Cc1cccs1
1009.39
Cc1ccsc1
1010.72
c1ccsc1
1052.71

###

# cond: 318.15 K; 5000 kPa; Liquid; Vibrating tube method
experimental.endpoint: mass density (kg/m3)

Cc1ccc(C)s1
964.24
Cc1cccs1
997.59
Cc1ccsc1
999.15
c1ccsc1
1039.44

###

# cond: 323.15 K; 2000 kPa; Liquid; Vibrating tube method
experimental.endpoint: mass density (kg/m3)

c1ccsc1
1030.52
Cc1ccsc1
991.1
Cc1ccc(C)s1
956.46
Cc1cccs1
989.38

###

# cond: 338.15 K; 30000 kPa; Liquid; Vibrating tube method
experimental.endpoint: mass density (kg/m3)

Cc1ccc(C)s1
966.51
Cc1ccsc1
1000.53
Cc1cccs1
999.06
c1ccsc1
1039.88

###

# cond: 308.15 K; 60000 kPa; Liquid; Vibrating tube method
experimental.endpoint: mass density (kg/m3)

c1ccsc1
1092.23
Cc1cccs1
1047.43
Cc1ccc(C)s1
1012.72
Cc1ccsc1
1048.03

###

# cond: 288.15 K; 30000 kPa; Liquid; Vibrating tube method
experimental.endpoint: mass density (kg/m3)

c1ccsc1
1092.91
Cc1cccs1
1047.1
Cc1ccc(C)s1
1011.66
Cc1ccsc1
1047.65

###

# cond: 338.15 K; 100 kPa; Liquid; Vibrating tube method
experimental.endpoint: mass density (kg/m3)

c1ccsc1
1010.08
Cc1cccs1
970.87
Cc1ccc(C)s1
939.09
Cc1ccsc1
972.98

###

# cond: 288.15 K; 5000 kPa; Liquid; Vibrating tube method
experimental.endpoint: mass density (kg/m3)

Cc1ccc(C)s1 [2,5-dimethylthiophene]
994.21
Cc1ccsc1 [3-methylthiophene]
1030.34
c1ccsc1 [thiophene]
1074.53
Cc1cccs1 [2-methylthiophene]
1029.45

###

# cond: 303.15 K; 15000 kPa; Liquid; Vibrating tube method
experimental.endpoint: mass density (kg/m3)

Cc1ccsc1 [3-methylthiophene]
1022.7
Cc1ccc(C)s1 [2,5-dimethylthiophene]
987.17
c1ccsc1 [thiophene]
1065.48
Cc1cccs1 [2-methylthiophene]
1021.62

###

# cond: 283.15 K; 2000 kPa; Liquid; Vibrating tube method
experimental.endpoint: mass density (kg/m3)

Cc1ccc(C)s1
996.96
Cc1ccsc1
1033.26
c1ccsc1
1077.94
Cc1cccs1
1032.44

###

# cond: 333.15 K; 100 kPa; Liquid; Vibrating tube method
experimental.endpoint: mass density (kg/m3)

c1ccsc1
1016.27
Cc1ccsc1
978.47
Cc1ccc(C)s1
944.28
Cc1cccs1
976.49

###

# cond: 308.15 K; 100 kPa; Liquid; Vibrating tube method
experimental.endpoint: mass density (kg/m3)

Cc1ccc(C)s1
970
c1ccsc1
1046.7
Cc1cccs1
1003.95
Cc1ccsc1
1005.4

###

# cond: 323.15 K; 100 kPa; Liquid; Vibrating tube method
experimental.endpoint: mass density (kg/m3)

Cc1cccs1
987.55
c1ccsc1
1028.59
Cc1ccc(C)s1
954.64
Cc1ccsc1
989.3

###

# cond: 288.15 K; 45000 kPa; Liquid; Vibrating tube method
experimental.endpoint: mass density (kg/m3)

Cc1ccc(C)s1
1020.88
c1ccsc1
1102.65
Cc1cccs1
1056.47
Cc1ccsc1
1056.84

###

# cond: 338.15 K; 2000 kPa; Liquid; Vibrating tube method
experimental.endpoint: mass density (kg/m3)

c1ccsc1 [thiophene]
1012.22
Cc1ccc(C)s1 [2,5-dimethylthiophene]
941.08
Cc1cccs1 [2-methylthiophene]
972.92
Cc1ccsc1 [3-methylthiophene]
974.96

###

# cond: 323.15 K; 60000 kPa; Liquid; Vibrating tube method
experimental.endpoint: mass density (kg/m3)

c1ccsc1
1077.86
Cc1ccsc1
1035.18
Cc1cccs1
1034.36
Cc1ccc(C)s1
1000.41

###

# cond: 298.15 K; 25000 kPa; Liquid; Vibrating tube method
experimental.endpoint: mass density (kg/m3)

c1ccsc1
1078.69
Cc1cccs1
1033.98
Cc1ccc(C)s1
999.13
Cc1ccsc1
1034.81

###

# cond: 283.15 K; 10000 kPa; Liquid; Vibrating tube method
experimental.endpoint: mass density (kg/m3)

Cc1cccs1 [2-methylthiophene]
1038.39
c1ccsc1 [thiophene]
1084.09
Cc1ccsc1 [3-methylthiophene]
1039.07
Cc1ccc(C)s1 [2,5-dimethylthiophene]
1002.83

###

# cond: 318.15 K; 100 kPa; Liquid; Vibrating tube method
experimental.endpoint: mass density (kg/m3)

Cc1ccc(C)s1
959.75
c1ccsc1
1034.64
Cc1cccs1
993.03
Cc1ccsc1
994.7

###

# cond: 318.15 K; 20000 kPa; Liquid; Vibrating tube method
experimental.endpoint: mass density (kg/m3)

Cc1cccs1 [2-methylthiophene]
1010.45
c1ccsc1 [thiophene]
1052.97
Cc1ccsc1 [3-methylthiophene]
1011.74
Cc1ccc(C)s1 [2,5-dimethylthiophene]
976.83

###

# cond: 318.15 K; 65000 kPa; Liquid; Vibrating tube method
experimental.endpoint: mass density (kg/m3)

c1ccsc1
1085.87
Cc1ccsc1
1042.45
Cc1cccs1
1041.75
Cc1ccc(C)s1
1007.46

###

# cond: 308.15 K; 15000 kPa; Liquid; Vibrating tube method
experimental.endpoint: mass density (kg/m3)

Cc1cccs1 [2-methylthiophene]
1016.53
Cc1ccc(C)s1 [2,5-dimethylthiophene]
982.36
c1ccsc1 [thiophene]
1059.87
Cc1ccsc1 [3-methylthiophene]
1017.69

###

# cond: 308.15 K; 35000 kPa; Liquid; Vibrating tube method
experimental.endpoint: mass density (kg/m3)

c1ccsc1
1075.4
Cc1ccsc1
1032.24
Cc1ccc(C)s1
996.93
Cc1cccs1
1031.36

###

# cond: 293.15 K; 65000 kPa; Liquid; Vibrating tube method
experimental.endpoint: mass density (kg/m3)

Cc1ccc(C)s1
1027.88
c1ccsc1
1109.63
Cc1cccs1
1063.42
Cc1ccsc1
1063.7

###

# cond: 303.15 K; 45000 kPa; Liquid; Vibrating tube method
experimental.endpoint: mass density (kg/m3)

Cc1cccs1 [2-methylthiophene]
1042.68
Cc1ccc(C)s1 [2,5-dimethylthiophene]
1007.85
Cc1ccsc1 [3-methylthiophene]
1043.34
c1ccsc1 [thiophene]
1087.49

###

# cond: 303.15 K; 2000 kPa; Liquid; Vibrating tube method
experimental.endpoint: mass density (kg/m3)

Cc1ccc(C)s1 [2,5-dimethylthiophene]
976.72
c1ccsc1 [thiophene]
1054.43
Cc1ccsc1 [3-methylthiophene]
1012.32
Cc1cccs1 [2-methylthiophene]
1011.03

###

# cond: 323.15 K; 35000 kPa; Liquid; Vibrating tube method
experimental.endpoint: mass density (kg/m3)

Cc1ccsc1
1018.35
c1ccsc1
1059.82
Cc1cccs1
1017.21
Cc1ccc(C)s1
983.67

###

# cond: 293.15 K; 100 kPa; Liquid; Vibrating tube method
experimental.endpoint: mass density (kg/m3)

Cc1ccc(C)s1
985.3
Cc1cccs1
1020.2
Cc1ccsc1
1021.31
c1ccsc1
1064.59

###

# cond: 303.15 K; 40000 kPa; Liquid; Vibrating tube method
experimental.endpoint: mass density (kg/m3)

Cc1cccs1
1039.44
Cc1ccsc1
1040.16
c1ccsc1
1084.1
Cc1ccc(C)s1
1004.69

###

# cond: 338.15 K; 15000 kPa; Liquid; Vibrating tube method
experimental.endpoint: mass density (kg/m3)

Cc1ccsc1
987.63
Cc1cccs1
985.87
c1ccsc1
1025.92
Cc1ccc(C)s1
953.67

###

# cond: 298.15 K; 35000 kPa; Liquid; Vibrating tube method
experimental.endpoint: mass density (kg/m3)

Cc1ccc(C)s1
1005.84
c1ccsc1
1085.81
Cc1ccsc1
1041.52
Cc1cccs1
1040.82
